# assay system: feline FcRn complex (FcRn-α subunit and β-microglobulin), biotin labeled (feline)
# assay details: SPR, pH 7.4
Kd values, listed per item
Unit nM implied. Number only.

Please review the following examples before continuing.
[
  {
    "binder": "feline IgG1a D399M (antibody, part only; not given: Variable domains, not shown: another chain or arm of the molecule) constant: ASTTAPSVFPLAPSCGTTSGATVALACLVLGYFPEPVTVSWNSGALTSGVHTFPAVLQASGLYSLSSMVTVPSSRWLSDTFTCNVAHPPSNTKVDKTVRKTDHPPGPKPCDCPKCPPPEMLGGPSIFIFPPKPKDTLSISRTPEVTCLVVDLGPDDSDVQITWFVDNTQVYTAKTSPREEQFNSTYRVVSVLPILHQDWLKGKEFKCKVNSKSLPSPIERTISKAKGQPHEPQVYVLPPAQEELSRNKVSVTCLIKSFHPPDIAVEWEITGQPEPENNYRTTPPQLMSDGTYFVYSKLSVDRSHWQRGNTYTCSVSHEALHSHHTQKSLTQSPGK",
    "Kd / nM": 46.8
  },
  {
    "binder": "feline IgG1a S434G (antibody, part only; not given: Variable domains, not shown: another chain or arm of the molecule) constant: ASTTAPSVFPLAPSCGTTSGATVALACLVLGYFPEPVTVSWNSGALTSGVHTFPAVLQASGLYSLSSMVTVPSSRWLSDTFTCNVAHPPSNTKVDKTVRKTDHPPGPKPCDCPKCPPPEMLGGPSIFIFPPKPKDTLSISRTPEVTCLVVDLGPDDSDVQITWFVDNTQVYTAKTSPREEQFNSTYRVVSVLPILHQDWLKGKEFKCKVNSKSLPSPIERTISKAKGQPHEPQVYVLPPAQEELSRNKVSVTCLIKSFHPPDIAVEWEITGQPEPENNYRTTPPQLDSDGTYFVYSKLSVDRSHWQRGNTYTCSVSHEALHGHHTQKSLTQSPGK",
    "Kd / nM": 21.6
  },
  {
    "binder": "feline IgG1a S252Y/S428Y/D312P (antibody, part only; not given: variable domains, not shown: another chain or arm of the molecule) constant: ASTTAPSVFPLAPSCGTTSGATVALACLVLGYFPEPVTVSWNSGALTSGVHTFPAVLQASGLYSLSSMVTVPSSRWLSDTFTCNVAHPPSNTKVDKTVRKTDHPPGPKPCDCPKCPPPEMLGGPSIFIFPPKPKDTLYISRTPEVTCLVVDLGPDDSDVQITWFVDNTQVYTAKTSPREEQFNSTYRVVSVLPILHQPWLKGKEFKCKVNSKSLPSPIERTISKAKGQPHEPQVYVLPPAQEELSRNKVSVTCLIKSFHPPDIAVEWEITGQPEPENNYRTTPPQLDSDGTYFVYSKLSVDRSHWQRGNTYTCSVYHEALHSHHTQKSLTQSPGK",
    "Kd / nM": 4080
  }
]

Here's the next entry for you.
Briefly, Kd measured for feline IgG1a S252M/S428M/S434N (antibody, part only; not given: Variable domains, not shown: another chain or arm of the molecule) constant: ASTTAPSVFPLAPSCGTTSGATVALACLVLGYFPEPVTVSWNSGALTSGVHTFPAVLQASGLYSLSSMVTVPSSRWLSDTFTCNVAHPPSNTKVDKTVRKTDHPPGPKPCDCPKCPPPEMLGGPSIFIFPPKPKDTLMISRTPEVTCLVVDLGPDDSDVQITWFVDNTQVYTAKTSPREEQFNSTYRVVSVLPILHQDWLKGKEFKCKVNSKSLPSPIERTISKAKGQPHEPQVYVLPPAQEELSRNKVSVTCLIKSFHPPDIAVEWEITGQPEPENNYRTTPPQLDSDGTYFVYSKLSVDRSHWQRGNTYTCSVMHEALHNHHTQKSLTQSPGK : 15.3
